- Test system: All receptor
- Assay Procedure: Inhibition of pressor response to intravenous angiotensin II in anaesthetised rats (AII receptor blocking activity)
- Assay type: in vivo
- Assay Setup: i.v.; dose inhibiting by fifty percent the pressor response to 50 ng/kg i.v. angiotensin II; angiotensin II injected two minutes after test compound; male Wister-Imamichi rats
Give ID50 for every item shown.
Express it in mg/kg; write the number only.

// lookup ID50 for CCCOCc1nc(C(C)(C)O)c(C(=O)O)n1Cc1ccc(-c2ccccc2-c2nnn[nH]2)cc1
0.016

Data request, read-out ID50, for COCc1nc(C(C)(C)O)c(C(=O)O)n1Cc1ccc(-c2ccccc2-c2nnn[nH]2)cc1
0.0066

ID50 for CCOCc1nc(C(C)(C)O)c(C(=O)O)n1Cc1ccc(-c2ccccc2-c2nnn[nH]2)cc1 ?
0.0059

If you can, please state the reported ID50 value of CSCc1nc(C(C)(C)O)c(C(=O)O)n1Cc1ccc(-c2ccccc2-c2nnn[nH]2)cc1 .
0.025

---

- Test system: All receptor
- Assay Procedure: Inhibition of pressor response to intravenous angiotensin II in anaesthetised rats (AII receptor blocking activity)
- Format: in vivo
- Assay Setup: i.v.; dose inhibiting by fifty percent the pressor response to 50 ng/kg i.v. angiotensin II; angiotensin II injected two minutes after test compound; male Wister-Imamichi rats
Provide the reported ID50 of each item.
Entry rule: numbers only, all in mg/kg.

Can you share its ID50? I mean this compound: COC(C)c1nc(C(C)(C)O)c(C(=O)O)n1Cc1ccc(-c2ccccc2-c2nnn[nH]2)cc1 (stereo not drawn)
0.074

Given the entry CSc1nc(C(C)(C)O)c(C(=O)O)n1Cc1ccc(-c2ccccc2-c2nnn[nH]2)cc1 , report its measured ID50.
0.026

// lookup ID50 for CCSc1nc(C(C)(C)O)c(C(=O)O)n1Cc1ccc(-c2ccccc2-c2nnn[nH]2)cc1
0.019
